- CONDITION SET: in cyclohexanone, 338.25 K
EXPERIMENTAL ENDPOINT: solubility (mole fraction)

Entry `Nc1ccc(Cl)nn1` — recorded solubility (mole fraction) = 0.0174

====

- CONDITION SET: in ethyl acetate, 343.15 K
EXPERIMENTAL ENDPOINT: solubility (mole fraction)
Provide a numeric answer; units are not to be included.

Entry `Nc1ccc(Cl)nn1` — recorded solubility (mole fraction) = 0.0053

====

- CONDITION SET: in n-butanol, 322.95 K
EXPERIMENTAL ENDPOINT: solubility (mole fraction)
Provide a numeric answer; units are not to be included.

Entry `Nc1ccc(Cl)nn1` — recorded solubility (mole fraction) = 0.00498

====

- CONDITION SET: in methanol, 328.55 K
EXPERIMENTAL ENDPOINT: solubility (mole fraction)
Provide a numeric answer; units are not to be included.

Entry `Nc1ccc(Cl)nn1` — recorded solubility (mole fraction) = 0.00936

====

- CONDITION SET: in toluene, 318.15 K
EXPERIMENTAL ENDPOINT: solubility (mole fraction)
Provide a numeric answer; units are not to be included.

Entry `Nc1ccc(Cl)nn1` — recorded solubility (mole fraction) = 0.000155

====

- CONDITION SET: in ethyl acetate, 328.15 K
EXPERIMENTAL ENDPOINT: solubility (mole fraction)

Entry `Nc1ccc(Cl)nn1` — recorded solubility (mole fraction) = 0.00358

====

- CONDITION SET: in DMF, 303.35 K
EXPERIMENTAL ENDPOINT: solubility (mole fraction)
Provide a numeric answer; units are not to be included.

Entry `Nc1ccc(Cl)nn1` — recorded solubility (mole fraction) = 0.0401

====

- CONDITION SET: in ethyl acetate, 318.25 K
EXPERIMENTAL ENDPOINT: solubility (mole fraction)
Provide a numeric answer; units are not to be included.

Entry `Nc1ccc(Cl)nn1` — recorded solubility (mole fraction) = 0.00263

====

- CONDITION SET: in toluene, 308.15 K
EXPERIMENTAL ENDPOINT: solubility (mole fraction)
Provide a numeric answer; units are not to be included.

Entry `Nc1ccc(Cl)nn1` — recorded solubility (mole fraction) = 8.17e-05

====

- CONDITION SET: in DMF, 308.15 K
EXPERIMENTAL ENDPOINT: solubility (mole fraction)
Provide a numeric answer; units are not to be included.

Entry `Nc1ccc(Cl)nn1` — recorded solubility (mole fraction) = 0.0455

====

- CONDITION SET: in toluene, 313.35 K
EXPERIMENTAL ENDPOINT: solubility (mole fraction)
Provide a numeric answer; units are not to be included.

Entry `Nc1ccc(Cl)nn1` — recorded solubility (mole fraction) = 0.000116

====

- CONDITION SET: in DMF, 337.95 K
EXPERIMENTAL ENDPOINT: solubility (mole fraction)
Provide a numeric answer; units are not to be included.

Entry `Nc1ccc(Cl)nn1` — recorded solubility (mole fraction) = 0.083

====

- CONDITION SET: in n-butanol, 328.15 K
EXPERIMENTAL ENDPOINT: solubility (mole fraction)
Provide a numeric answer; units are not to be included.

Entry `Nc1ccc(Cl)nn1` — recorded solubility (mole fraction) = 0.00629

====

- CONDITION SET: in cyclohexanone, 333.15 K
EXPERIMENTAL ENDPOINT: solubility (mole fraction)
Provide a numeric answer; units are not to be included.

Entry `Nc1ccc(Cl)nn1` — recorded solubility (mole fraction) = 0.015
